Hi there, I'd appreciate the recorded MIC for every entry that follows.
Report the figure along with its unit, number first.

Input line: Query the reported MIC for Escherichia coli Isogenic TEM-10; item: Nc1nc(/C(=N/OC2(C(=O)O)CC3CCC(C2)O3)C(=O)N[C@H]2CON(C3(C(=O)O)C[C@H](N4C(=O)c5cc(O)c(O)cc5C4=O)C(=O)O3)C2=O)cs1 (some centres unmarked) [Cmpd 13]
Output line: 0.03 µg/mL

Input line: Query the reported MIC for Escherichia coli Isogenic TEM-10; item: Nc1nc(/C(=N/OC2(C(=O)O)CCOCC2)C(=O)N[C@H]2CON(C3(C(=O)O)C[C@H](N4C(=O)c5cc(O)c(O)cc5C4=O)C(=O)O3)C2=O)cs1 (some centres unmarked) [Cmpd 8]
Output line: 0.0149 µg/mL

Input line: Query the reported MIC for Escherichia coli Isogenic TEM-10; item: CC(C)(O/N=C(\C(=O)N[C@H]1CON(C2(C(=O)O)C[C@@H](N3C(=O)c4cc(O)c(O)cc4C3=O)C(=O)O2)C1=O)c1csc(N)n1)C(=O)O (some centres unmarked) [Cmpd 40]
Output line: 0.03 µg/mL

Input line: Query the reported MIC for Escherichia coli Isogenic TEM-10; item: CN1CCC(O/N=C(\C(=O)N[C@H]2CON(C3(C(=O)O)C[C@H](N4C(=O)c5cc(O)c(O)cc5C4=O)C(=O)O3)C2=O)c2csc(N)n2)(C(=O)O)CC1 (some centres unmarked) [Cmpd 9]
Output line: 0.12 µg/mL

Input line: Query the reported MIC for Escherichia coli Isogenic TEM-10; item: Nc1nc(/C(=N/OC2(C(=O)O)CCC(F)(Cl)CC2)C(=O)N[C@H]2CON(C3(C(=O)O)C[C@H](N4C(=O)c5cc(O)c(O)cc5C4=O)C(=O)O3)C2=O)cs1 (some centres unmarked) [Cmpd 11]
Output line: 0.06 µg/mL

Data origin: patent US11780832B2
